- System: SF-295 CNS
- procedure text: NCI-60 one-dose screen, 48 h (100 = growth as untreated, 0 = no growth, -100 = all killed)
- run parameters: 10 µM
This is part of a sample that, as a whole, favours compounds with a hit. Of some 83,000 tested, about 20% had one in any assay.
// assign Fulfilled if growth falls strictly below 90%, else Not fulfilled (ties count as Not fulfilled)

Worked cases, answers included:
- smiles repr: "CC[C@@]1(OC(=O)CN(C)C)C(=O)OCc2c1cc1n(c2=O)Cc2cc3c(N)cccc3nc2-1"
  target under test: "SF-295 CNS"
  category label: "Fulfilled"
- smiles repr: "C=C1N(C)c2ccc(Cl)cc2C1(C)C"
  target under test: "SF-295 CNS"
  category label: "Fulfilled"
- smiles repr: "CN(C)CCNc1cccc2sc3ccc(O)cc3c(=O)c12"
  target under test: "SF-295 CNS"
  category label: "Fulfilled"
- smiles repr: "COc1ccc2c(c1)[nH]c1c(/C=C/c3ccccc3)nccc12"
  target under test: "SF-295 CNS"
  category label: "Fulfilled"

Query: Problem: For the molecule `O=C(O)c1ccccc1.[Ag]` , is growth under 90%?
Reply: Not fulfilled

====

- System: MDA-MB-435 melanoma
- procedure text: NCI-60 one-dose screen, 48 h
- run parameters: 10 µM
Compounds without any hit were thinned out: in the full panel of roughly 83,000, 20% have a hit. Activity calls are given as the source filed them. The calls were made as follows: active = growth percent below 10; inactive = the rest.
I would appreciate it if you answered using one of these outcomes: True = active, False = inactive

- molecule: "CC[C@@]1(OC(=O)CN(C)C)C(=O)OCc2c1cc1n(c2=O)Cc2cc3c(N)cccc3nc2-1"
  target under test: "MDA-MB-435 melanoma"
  category label: "True"
- molecule: "COc1cccc(C(c2cc3c(cc2O)OCO3)N2CCOCC2)c1OC (configuration not stated)"
  target under test: "MDA-MB-435 melanoma"
  category label: "False"
- molecule: "O=C1c2cccc3cc([N+](=O)[O-])cc(c23)C(=O)N1CCN1CCCC1"
  target under test: "MDA-MB-435 melanoma"
  category label: "False"
- molecule: "Cc1cc(N=C2C=CC(=[N+](C)C)C=C2)c(N)cc1N"
  target under test: "MDA-MB-435 melanoma"
  category label: "False"
- molecule: "COc1ccc2c(c1)[nH]c1c(/C=C/c3ccccc3)nccc12"
  target under test: "MDA-MB-435 melanoma"
  category label: "False"
- molecule: "O=C1c2ccccc2CCC1(Br)Br"
  target under test: "MDA-MB-435 melanoma"
  category label: "True"

Query: Assay result, entry `CN(C)c1ccc(/C=C/c2ccnc3ccccc23)cc1N` — outcome?
Reply: False

====

- Test system: DU-145 prostate
- procedure text: NCI-60 one-dose screen, 48 h
- run parameters: 10 µM
Compounds without any hit were thinned out: in the full panel of roughly 83,000, 20% have a hit. Calls of active or inactive are those of the source. Rule for the calls: active = growth percent below 10; inactive = the rest.
Hello, when you answer, please use one of the following outcomes: 1 for active, 0 for inactive

- compound: "O=C(NC(=S)Nc1ccccn1)c1ccccc1"
  category label: 0
- compound: "Cc1cc(O)c2c(c1O)C(=O)C13C(=C2O)C(=O)C2C(O)C1C1C(O)C3C(=O)C3=C(O)c4c(O)cc(C)c(O)c4C(=O)C321 (stereo not drawn)"
  category label: 1
- compound: "N#CC(=C1C=CC(=NO)C=C1)c1ccccc1"
  category label: 1
- compound: "CCOC(=O)[C@]1(Br)CC[C@@]1(Br)C(=O)OCC"
  category label: 0
- compound: "CC[C@@]1(OC(=O)CN(C)C)C(=O)OCc2c1cc1n(c2=O)Cc2cc3c(N)cccc3nc2-1"
  category label: 1

Query: For `O=Nc1ccc(Nc2ccccc2)cc1` , what call appears in the results of this test?
Reply: 0

Query: For `CN(CC(=O)O)c1ccc(/C=C/c2ccnc3ccccc23)cc1` , what call appears in the results of this test?
Reply: 0

Query: Could you kindly confirm the outcome this assay logged for `Cn1ncc2cc3c(Nc4ccc(Cl)cc4)cccc3nc21` ?
Reply: 0

Query: Status in this test for `O=C(CNS(=O)(=O)Cc1ccccc1)NNc1ccccc1` ?
Reply: 0

Query: How did this test come out for `ClCCn1c(CCl)nc2ccc(Cl)cc21` ?
Reply: 1

Query: Call for entry `O=C1C=CC(=O)N1c1ccc(N2C(=O)C=CC2=O)cc1` :
Reply: 0

Query: Call for entry `Nc1nc(N)c2cc(Sc3ccc4ccccc4c3)ccc2n1` :
Reply: 0

Query: Outcome? `COc1ccc2c(c1)[nH]c1c(/C=C/c3ccccc3)nccc12`
Reply: 0

Query: Record request — test call for `CN(C)CCNc1cccc2sc3ccc(O)cc3c(=O)c12`
Reply: 0

Query: What classification did `CCC(=O)Oc1ccc(/C=N/NC(N)=S)nc1` end up with in this test?
Reply: 0

Query: What did this assay record as the result for `COc1ccc(N)c2c1C(=O)c1ccccc1C2=O` ?
Reply: 0

Query: Record lookup: outcome of this test for `Cc1cc(N=C2C=CC(=[N+](C)C)C=C2)c(N)cc1N` ?
Reply: 0

Query: What outcome does the record of this test show for CC1CCC2(C(=O)O)CCC3(C)C(=CCC4C5(C)CC(O)C(O)C(C)(CO)C5C(O)CC43C)C2C1C (stereo not drawn) ?
Reply: 0

Query: What outcome does the record of this test show for `CCC(C)(c1ccc(O)c(C)c1)c1ccc(O)c(C)c1` ?
Reply: 0

Query: Recorded call for `CN(C)c1ccc(/C=C/c2ccnc3ccccc23)cc1N` ?
Reply: 0

Query: Could you please tell me the result logged for `O=S(=O)(c1cc(Cl)ccc1O)c1cc(Cl)ccc1O` in this assay?
Reply: 0

Query: Hi, sorry to bother you, what did the test record for `C=C1N(C)c2ccc(Cl)cc2C1(C)C` ?
Reply: 0

Query: Entry `N#C/C(=C/N1C(=O)/C(=C/c2ccc([N+](=O)[O-])cc2)SC1=S)c1nc2ccccc2s1` : call = ?
Reply: 0

This collection of values is drawn from PubChem BioAssay (NCI).
